experimentDescription: Cytotoxicity in HEK293FT cells co-expressing mouse GOAT and pre-proghrelin assessed as reduction in cell viability incubated for 24 hrs by alamar blue assay
Assay type: cell-based
setupConditions: human, read-out: LD50
Could you please report measured CC50 at 24 h for the items listed next?

| smilesInput | CC50 at 24 h |
| --- | --- |
| CCNC(=O)[C@]12CCC(C)(C)C[C@H]1[C@H]1C(=O)C=C3[C@@]4(C)C=C(C#N)C(=O)C(C)(C)[C@@H]4CC[C@@]3(C)[C@]1(C)CC2 | ≥ 10 µM |

The compound listed as "COC(=O)[C@]12CCC(C)(C)C[C@H]1[C@H]1C(=O)C=C3[C@@]4(C)C=C(C#N)C(=O)C(C)(C)[C@@H]4CC[C@@]3(C)[C@]1(C)CC2" shows CC50 at 24 h equal to ≥ 10 µM
